biological target: the molecule itself; assay: SEC; homodimeric NF-κB complexes concentrated and injected on Superdex 200 16/60 in 20 mM Tris-HCl pH 7.5, 150 mM NaCl, 5 mM β-mercaptoethanol, 2% glycerol

{"columns": ["protein", "binding result"],
 "data": [
  ["ΔNLS-p50 (residues 41-351) (domain or fragment, human, UniProt P19838 41-351, looked up, NF-κB p50, human, residues 41-351, lacking the C-terminal NLS, untagged; also called p50-ΔNLS; source: E. coli BL21 DE3, purified (polyethyleneimine and ammonium sulfate precipitation, HiTrap SP, Superdex 200)) GPYLQILEQPKQRGFRFRYVCEGPSHGGLPGASSEKNKKSYPQVKICNYVGPAKVIVQLVTNGKNIHLHAHSLVGKHCEDGICTVTAGPKDMVVGFANLGILHVTKKKVFETLEARMTEACIRGYNPGLLVHPDLAYLQAEGGGDRQLGDREKELIRQAALQQTKEMDLSVVRLMFTAFLPDSTGSFTRRLEPVVSDAIYDSKAPNASNLKIVRMDRTAGCVTGGEEIYLLCDKVQKDDIQIRFYEEEENGGVWEGFGDFSPTDVHRQFAIVFKTPKYKDINITKPASVFVQLRRKSDLETSEPKPFLYYP", "binds"]
]}
